assay: ATG_BRE_CIS: Attagene CIS-FACTORIAL HepG2 Assay for human Bone Morphogenetic Protein (BMP) Response Element (BRE) (AID 2282933); details: HepG2 BMP response element reporter, Attagene transcription factor profiling; actives raise or lower the signal
The source made the active and inactive calls. Rule for the calls: active = hit-call score of the fitted dose curve at least 0.9, where 1 is the maximum; inactive = score below 0.9.
Give your call using only these classes: yes (1) = active, no (0) = inactive

Observe how each entry below is paired with its result.
compound | class
CCOP(=O)(O)C(N)=O | no (0)
ClC(Cl)(Cl)c1ccccc1 | no (0)
C/C(=N\NC(=O)Nc1cc(F)cc(F)c1)c1ncccc1C(=O)O | no (0)
OCC(F)(F)OC(F)(F)C(F)(F)OC(F)(F)C(F)(F)OC(F)(F)F | no (0)
Cc1ccc(C(=O)Cl)cc1 | no (0)
FC(F)(F)C(F)(C(F)(F)F)C(F)(F)C(F)(F)CC1CO1 (stereo not given) | no (0)
Cc1cccc(N)c1 | no (0)
O=C(CBr)OCc1ccccc1 | no (0)

[Q] Recorded call for O=C(O)C(F)(F)OC(F)(F)C(F)(F)OC(F)(F)C(=O)O ?
[A] no (0)

[Q] Entry C=CC(=O)OCC(CC)(COC(=O)C=C)COC(=O)C=C : call = ?
[A] no (0)

---

Assay: BSK_3C_VCAM1: BioMAP Diversity Plus: 3C Assay for Vascular cell adhesion molecule 1 (VCAM1) Biomarker Activity (AID 2282999)
Conditions: BioMAP 3C HUVEC, VCAM1 ELISA, cytokine-stimulated; actives raise or lower the signal
Protocol: BSK_3C is a cell-based, multiplexed-readout assay that uses umbilical vein endothelium, a human vascular primary cell, with measurements taken at 24 hours after chemical dosing in a 96-well plate.BSK_3C_VCAM1 is an assay component measured in the BSK_3C assay. It measures VCAM-1 antibody related to regulation of gene expression using ELISA technology.Data from the assay component BSK_3C_VCAM1 was analyzed into 1 assay endpoint. […]
The source made the active and inactive calls. How the source made its calls: active means hit-call score of the fitted dose curve at least 0.9, where 1 is the maximum; inactive means score below 0.9.
Assign a class; possible classes are true = active, false = inactive

Solved entries:
compound | class
O=[N+]([O-])c1ccc(Cl)c(Cl)c1 | false
CC(Cc1ccc(OCC(=O)O)cc1)NCC(O)c1csc(C(F)(F)F)n1 (centres undefined) | false
Cc1ccc(O)cc1C | false

[Q] # lookup: test call for OCC(F)(F)OC(F)(F)C(F)(F)OC(F)(F)CO
[A] false

[Q] Which result was noted for this compound in the test: Nc1ccc([N+](=O)[O-])cc1Cl
[A] false

[Q] Could you check what this test reported for Nc1ccc(Cl)cc1 ?
[A] false

[Q] Look up the recorded call for CCOc1ccc(C(C)(C)COCc2cccc(Oc3ccccc3)c2)cc1 in this test.
[A] false

[Q] Recorded test outcome, item c1ccc(OP(Oc2ccccc2)Oc2ccccc2)cc1
[A] false

[Q] Which outcome did this test record for the compound NC(=O)C(F)(F)C(F)(F)F ?
[A] false

[Q] Record request — test call for c1cc2c3c(cccc3c1)CC2
[A] false

[Q] Given [N-]=[N+]=[N-] , state the outcome it received in this test.
[A] false

[Q] What did the test return for O=P(Oc1ccccc1)(Oc1ccccc1)Oc1ccccc1 ?
[A] true

[Q] Give the logged outcome of this assay for the following compound: O=C(O)C(F)(OC(F)(F)C(F)(F)C(F)(F)F)C(F)(F)F (centres undefined)
[A] false

[Q] Field: outcome | Entry: O=P1(N(CCCl)CCCl)NCCCO1 (centres undefined)
[A] false

[Q] Each compound tested received a call. Report the one for COP(N)(=S)OC .
[A] false

[Q] So what was the verdict on Cc1c([N+](=O)[O-])cc2c(c1[N+](=O)[O-])C(C)(C)CC2(C)C in this test?
[A] false

[Q] # outcome recorded in this test, key = c1ccc2c(c1)Nc1ccccc1S2
[A] false
